assay: In vivo pharmacokinetic evaluation after i.v. and p.o. administration to rats; design: species or system rat; conditions: rat, plasma, iv, 2 mg/Kg, Rat 2, IV; read-out: Cltotal (total plasma clearance)
observable: clearance (mL/min/kg)
# value in mL/min/kg; strip the unit string

Task: Need clearance of COC[C@H]1O[C@H](OCCc2ccccc2)[C@H](NC(=O)CCCN)[C@@H](OCc2ccc3ccccc3c2)[C@@H]1O , thanks.
Output: 8.86

====

molecular target: Human SST5 somatostatin receptor (SSTR5) (Homo sapiens); construct: expressed in transfected cells; host or cells: HEK-293 EBNA; test: Filter plate assay for SST5 receptor, displacement of [125I]SST-14; format: binding; settings: 10 uM
Returns True if the recorded SSTR5 Inhib 10 uM % (inhibition of binding of SST-14 to SSTR5) is greater than or equal to 80%, and False otherwise.

Task: Is the recorded value of SSTR5 Inhib 10 uM % (inhibition of binding of SST-14 to SSTR5) equal to or greater than 80% for this molecule? COC[C@H]1OC(OCc2ccc3ccccc3c2)[C@H](NC(=O)CCCN)[C@@H](OCc2ccc(Cl)cc2)[C@@H]1O (stereo partly shown) [Compound 61]
Output: True

Task: Reported SSTR5 Inhib 10 uM % (inhibition of binding of SST-14 to SSTR5) reaches at least 80% for COC[C@H]1OC(OCc2ccc3ccccc3c2)[C@H](NC(=O)CCCN)[C@@H](OCc2ccccc2)[C@@H]1O (stereo partly shown) [Compound 68] ?
Output: True

Task: In plain terms: is recorded SSTR5 Inhib 10 uM % (inhibition of binding of SST-14 to SSTR5) at least 80% for COC[C@H]1OC(OCc2ccccc2)[C@H](NC(=O)CCN)[C@H](OCc2ccccc2)[C@@H]1O (stereo partly shown) [Compound 163] ?
Output: False

Task: Test whether the molecule CSC1O[C@H](COCc2ccc(Cl)cc2)[C@@H](O)[C@@H](OCc2ccc(-c3ccccc3)cc2)[C@H]1NC(=O)CNC(=N)N (stereo partly shown) [Compound 111] records SSTR5 Inhib 10 uM % (inhibition of binding of SST-14 to SSTR5) of 80% or higher.
Output: True

Task: Item COC[C@H]1OC(OCCc2ccccc2)[C@H](NC(=O)CCCNC(=N)N)[C@H](OCc2ccc(Cl)cc2)[C@@H]1O (stereo partly shown) [Compound 62] with SSTR5 Inhib 10 uM % (inhibition of binding of SST-14 to SSTR5) of 80% or above?
Output: True

Task: For this molecule, is measured SSTR5 Inhib 10 uM % (inhibition of binding of SST-14 to SSTR5) 80% or higher? CSC1O[C@H](COCc2ccccc2)[C@@H](O)[C@@H](OCc2ccc3ccccc3c2)[C@H]1NC(=O)CCCN (stereo partly shown) [Compound 156]
Output: False

====

biological target: Human SST5 somatostatin receptor (SSTR5) (Homo sapiens, UniProt P35346); construct: expressed in transfected cells; host or cells: HEK-293 EBNA; assay: Filter plate assay for SST5 receptor, displacement of [125I]SST-14; assay type: binding; conditions: 10 uM
Sequence (P35346 whole entry): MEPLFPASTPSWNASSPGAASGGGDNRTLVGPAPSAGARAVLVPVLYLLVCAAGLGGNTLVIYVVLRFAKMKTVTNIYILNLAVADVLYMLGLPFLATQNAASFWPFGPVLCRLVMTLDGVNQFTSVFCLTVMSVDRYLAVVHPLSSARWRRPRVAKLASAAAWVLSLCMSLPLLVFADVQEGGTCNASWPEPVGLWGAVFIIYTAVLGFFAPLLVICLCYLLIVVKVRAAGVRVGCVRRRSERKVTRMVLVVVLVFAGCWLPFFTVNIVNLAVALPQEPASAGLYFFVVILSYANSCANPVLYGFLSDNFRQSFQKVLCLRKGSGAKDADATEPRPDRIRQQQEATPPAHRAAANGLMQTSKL
Decide by SSTR5 Inhib 10 uM % (inhibition of binding of SST-14 to SSTR5): equal to or exceeding 90% means T, less means F.

Task: Please indicate if the recorded SSTR5 Inhib 10 uM % (inhibition of binding of SST-14 to SSTR5) for COC[C@H]1OC(OCc2ccccc2)[C@H](NC(=O)CCN)[C@H](OCc2ccc3ccccc3c2)[C@@H]1O (stereo partly shown) [Compound 37] meets or exceeds 90%.
Output: T

Task: Quick check: does COC[C@H]1OC(OCc2ccccc2)[C@H](NC(=O)CCCN)[C@@H](OCc2ccc3ccccc3c2)[C@@H]1O (stereo partly shown) [Compound 32] have SSTR5 Inhib 10 uM % (inhibition of binding of SST-14 to SSTR5) greater than or equal to 90%?
Output: T

Task: Test whether the molecule COC[C@H]1OC(OCc2ccc(-c3ccccc3)cc2)[C@H](NC(=O)CNC(=N)N)[C@@H](OCc2ccc(-c3ccccc3)cc2)[C@@H]1O (stereo partly shown) [Compound 129] records SSTR5 Inhib 10 uM % (inhibition of binding of SST-14 to SSTR5) of 90% or higher.
Output: F

Task: Hello, I need to know if CSC1O[C@H](COCc2ccc(Cl)cc2)[C@@H](O)[C@@H](OCc2ccc3ccccc3c2)[C@H]1NC(=O)CNC(=N)N (stereo partly shown) [Compound 150] has measured SSTR5 Inhib 10 uM % (inhibition of binding of SST-14 to SSTR5) not below 90%. Thanks!
Output: F

Task: Has COC[C@H]1OC(OCCc2ccccc2)[C@H](NC(=O)CCCN)[C@@H](OCc2ccc3ccccc3c2)[C@@H]1O (stereo partly shown) [Compound 44] a recorded SSTR5 Inhib 10 uM % (inhibition of binding of SST-14 to SSTR5) greater than or equal to 90%?
Output: T

Task: Form field: SSTR5 Inhib 10 uM % (inhibition of binding of SST-14 to SSTR5) at least 90%? Entry: CO[C@H]1[C@H](O)[C@@H](COCc2ccc(-c3ccccc3)cc2)OC(OCc2ccc(-c3ccccc3)cc2)[C@@H]1NC(=O)CCCNC(=N)N (stereo partly shown) [Compound 157]
Output: F

Task: API: above_or_equal(metric=SSTR5 Inhib 10 uM % (inhibition of binding of SST-14 to SSTR5), cutoff=90%) for item COC[C@H]1OC(OCc2ccccc2)[C@H](NC(=O)CCN)[C@H](OCc2ccc3ccccc3c2)[C@@H]1O (stereo partly shown) [Compound 18]
Output: T

Task: Reported SSTR5 Inhib 10 uM % (inhibition of binding of SST-14 to SSTR5) at or above 90%? CO[C@H]1[C@H](O)[C@@H](COCc2ccc(Cl)cc2)OC(OCc2ccc(Cl)cc2)[C@@H]1NC(=O)CCNC(=N)N (stereo partly shown) [Compound 152]
Output: F

Task: Determine whether this molecule has SSTR5 Inhib 10 uM % (inhibition of binding of SST-14 to SSTR5) no lower than 90%: CSC1OC(COCc2ccc(Cl)cc2)C(O)C(OCc2ccc(-c3ccccc3)cc2)C1NC(=O)CN (stereo not shown) [Compound 83]
Output: F

Task: Hi, just wondering whether CSC1O[C@H](COCc2ccc(-c3ccccc3)cc2)[C@@H](O)[C@@H](OCc2ccc(Cl)cc2)[C@H]1NC(=O)CCCN (stereo partly shown) [Compound 148] shows SSTR5 Inhib 10 uM % (inhibition of binding of SST-14 to SSTR5) of 90% or higher.
Output: F

====

molecular target: Human SST5 somatostatin receptor (SSTR5) (Homo sapiens); construct: expressed in transfected cells; host or cells: HEK-293 EBNA; test: Filter plate assay for SST5 receptor, displacement of [125I]SST-14; format: binding; details: 10 uM
observable: SSTR5 Inhib 10 uM % (inhibition of binding of SST-14 to SSTR5) (%)
Value expressed in %; do not type the unit.

Task: Return reported SSTR5 Inhib 10 uM % (inhibition of binding of SST-14 to SSTR5); argument: COC[C@H]1OC(OCCc2ccccc2)[C@H](NC(=O)CCCN)[C@@H](OCc2cccc(O)c2)[C@@H]1O (stereo partly shown)
Output: 77

Task: Endpoint output: SSTR5 Inhib 10 uM % (inhibition of binding of SST-14 to SSTR5) of COC[C@H]1OC(OCc2ccc(Cl)cc2)[C@H](NC(=O)CCNC(=N)N)[C@H](OCc2ccc(Cl)cc2)[C@@H]1O (stereo partly shown) . Value?
Output: 89

Task: May I ask what SSTR5 Inhib 10 uM % (inhibition of binding of SST-14 to SSTR5) has been recorded for COC[C@H]1OC(OCc2ccccc2)[C@H](NC(=O)CCCN)[C@H](OCc2ccc3ccccc3c2)[C@@H]1O (stereo partly shown) ?
Output: 88

Task: Query (compound): COC[C@H]1OC(OCc2ccccc2)[C@H](NC(=O)CCNC(=N)N)[C@@H](OCc2ccc(-c3ccccc3)cc2)[C@@H]1O (stereo partly shown) ; field requested: SSTR5 Inhib 10 uM % (inhibition of binding of SST-14 to SSTR5)
Output: 72

====

Provide the recorded SSTR5 Inhib 0.5 uM % (inhibition of binding of SST-14 to SSTR5) for the entries that follow.
molecular target: Human SST5 somatostatin receptor (SSTR5) (Homo sapiens); construct: expressed in transfected cells; host or cells: HEK-293 EBNA; experiment: Filter plate assay for SST5 receptor, displacement of [125I]SST-14; format: binding; details: 0.5 uM
Kindly provide the numeric value in % only, without the unit symbol.

Task: SSTR5 Inhib 0.5 uM % (inhibition of binding of SST-14 to SSTR5) lookup needed for COC[C@H]1OC(OCc2ccc3ccccc3c2)[C@H](NC(=O)CCCNC(=N)N)[C@@H](OCc2ccc(Cl)cc2)[C@@H]1O (stereo partly shown) [Compound 103] , thanks.
Output: 48

Task: So what's the measured SSTR5 Inhib 0.5 uM % (inhibition of binding of SST-14 to SSTR5) for this one? COC[C@H]1OC(OCc2ccc(-c3ccccc3)cc2)[C@H](NC(=O)CCCNC(=N)N)[C@@H](OCc2ccc(-c3ccccc3)cc2)[C@@H]1O (stereo partly shown) [Compound 58]
Output: 65

Task: Recorded SSTR5 Inhib 0.5 uM % (inhibition of binding of SST-14 to SSTR5) for COC1C(O)C(COCc2ccc(-c3ccccc3)cc2)OC(OCc2ccccc2)C1NC(=O)CCCNC(=N)N (stereo not shown) [Compound 171] , please?
Output: 44

Task: Would you kindly share the measured SSTR5 Inhib 0.5 uM % (inhibition of binding of SST-14 to SSTR5) for COC[C@H]1OC(OCc2ccc(-c3ccccc3)cc2)[C@H](NC(=O)CCNC(=N)N)[C@@H](OCc2ccc(Cl)cc2)[C@@H]1O (stereo partly shown) [Compound 108] ?
Output: 47

Task: Give its SSTR5 Inhib 0.5 uM % (inhibition of binding of SST-14 to SSTR5) value. Item: COC[C@H]1OC(OCc2ccccc2)[C@H](NC(=O)CCNC(=N)N)[C@H](OCc2ccc(-c3ccccc3)cc2)[C@@H]1O (stereo partly shown) [Compound 87]
Output: 43

Task: Reported SSTR5 Inhib 0.5 uM % (inhibition of binding of SST-14 to SSTR5), molecule COC[C@H]1OC(OCCc2ccccc2)[C@H](NC(=O)CCN)[C@H](OCc2ccc(Cl)cc2)[C@@H]1O (stereo partly shown) [Compound 34] : ____
Output: 61

Task: Which SSTR5 Inhib 0.5 uM % (inhibition of binding of SST-14 to SSTR5) is listed for COC[C@H]1OC(OCc2ccc(-c3ccccc3)cc2)[C@H](NC(=O)CCCNC(=N)N)[C@@H](OCc2ccc(Cl)cc2)[C@@H]1O (stereo partly shown) [Compound 93] ?
Output: 47

Task: Endpoint output: SSTR5 Inhib 0.5 uM % (inhibition of binding of SST-14 to SSTR5) of COC[C@H]1OC(OCc2ccc(Cl)cc2)[C@H](NC(=O)CCCNC(=N)N)[C@@H](OCc2ccc(-c3ccccc3)cc2)[C@@H]1O (stereo partly shown) [Compound 96] . Value?
Output: 43

Task: Query: SSTR5 Inhib 0.5 uM % (inhibition of binding of SST-14 to SSTR5); subject: CO[C@H]1[C@H](O)[C@@H](COCc2ccc3ccccc3c2)OC(OCc2ccc(Cl)cc2)[C@@H]1NC(=O)CCCN (stereo partly shown) [Compound 121]
Output: 32

Task: Report SSTR5 Inhib 0.5 uM % (inhibition of binding of SST-14 to SSTR5) for COC[C@H]1OC(OCc2ccccc2)[C@H](NC(=O)CCN)[C@H](OCc2ccc3ccccc3c2)[C@@H]1O (stereo partly shown) [Compound 18] please.
Output: 90

Task: Consider the molecule COC[C@H]1OC(OCCc2ccccc2)[C@H](NC(=O)CCCN)[C@@H](OCc2cccc(O)c2)[C@@H]1O (stereo partly shown) [Compound 147] and give its measured SSTR5 Inhib 0.5 uM % (inhibition of binding of SST-14 to SSTR5).
Output: 40

Task: Request the reported SSTR5 Inhib 0.5 uM % (inhibition of binding of SST-14 to SSTR5) associated with COC[C@H]1OC(OCc2ccc(Cl)cc2)[C@H](NC(=O)CCCNC(=N)N)[C@H](OCc2ccccc2)[C@@H]1O (stereo partly shown) [Compound 176]
Output: 37

Task: # get_value(readout='SSTR5 Inhib 0.5 uM % (inhibition of binding of SST-14 to SSTR5)', item= COC[C@H]1OC(OCc2ccc(Cl)cc2)[C@H](NC(=O)CCNC(=N)N)[C@@H](OCc2ccc(-c3ccccc3)cc2)[C@@H]1O (stereo partly shown) [Compound 101] )
Output: 50

Sourced from patent US20080280837A1
